Molecular target: huEPOR (Homo sapiens, UniProt P19235)
Construct: expressed in transfected cells; host or cells: Ba/F3 (murine pro-B line, own knowledge) carrying huEPOR
Sequence (P19235 25-508): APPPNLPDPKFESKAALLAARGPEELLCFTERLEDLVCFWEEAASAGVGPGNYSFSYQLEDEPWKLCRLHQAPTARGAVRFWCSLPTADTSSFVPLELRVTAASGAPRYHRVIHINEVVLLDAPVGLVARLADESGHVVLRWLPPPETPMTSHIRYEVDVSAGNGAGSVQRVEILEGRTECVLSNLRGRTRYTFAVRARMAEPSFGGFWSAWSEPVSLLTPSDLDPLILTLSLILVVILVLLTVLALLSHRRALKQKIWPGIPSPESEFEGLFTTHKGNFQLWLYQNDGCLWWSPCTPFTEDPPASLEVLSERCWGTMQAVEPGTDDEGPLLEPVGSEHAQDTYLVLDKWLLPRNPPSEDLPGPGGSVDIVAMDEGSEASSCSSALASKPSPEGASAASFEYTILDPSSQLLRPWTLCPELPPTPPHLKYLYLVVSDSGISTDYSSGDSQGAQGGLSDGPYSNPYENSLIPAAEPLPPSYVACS
Assay: Ba/F3-huEPOR cell proliferation assay
Type: cell-based
Details: concentration required to produce 50% of the maximal activity obtained with recombinant erythropoietin
Bridge positions count the residues as written; N and C are the ends. Square brackets hold non-standard residues; d marks the D form. Ends that are not written are not given here. I, II: the chains in the order shown. 1Nal = N[C@@H](Cc1cccc2ccccc12)C(=O)O; βAla = NCCC(=O)O
propertyMeasured: pEC50
Reminder that pEC50 is minus the log10 of a molar concentration.

I: GGTYSCHFGPLT[1Nal]VCRPQGGK-NH2 / II: GGTYSCHFGPLT[1Nal]VCRPQGG (amide I:21-II:C; cysteines drawn unpaired) [Example 1] | 8.22

Name the recorded pEC50 of the substance listed here: I: GGTYSCHFGPLT[1Nal]VCRPQGG[βAla]K-NH2 / II: GGTYSCHFGPLT[1Nal]VCRPQGG[βAla] (amide I:22-II:C; cysteines drawn unpaired) [Example 3]
8.30
